Measured values drawn from PubChem BioAssay AID1159580 for this set.

- Method notes: chemical genetic growth profiling, strain panel (AID 1159580);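 note: tested at 20 µM; growth read once vehicle control cultures reached saturation at 30 °C; 1 = growth at the plate median or of vehicle wells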
- Protocol conditions: S. cerevisiae deletion strains, growth OD, locus YOR144C, strain elg1, stronger effect = lower value
Out of some 5,500 compounds screened, about 2,000 (36%) were called active. Another 18% or so got no clear call; they are omitted. Some of the results follow.
Metric: normalized growth
Please reply with the number alone, leaving off any unit.

Query: Read the entry COC(=O)[C@H]1[C@H]2C[C@H]3c4[nH]c5ccccc5c4CCN3C[C@H]2CC[C@@H]1O and write its reported normalized growth.
Reply: 1

Query: Specify measured normalized growth for CC(C)[N+](C)(CCOC(=O)C1c2ccccc2Oc2ccccc21)C(C)C .
Reply: 1

Query: Identify measured normalized growth associated with O=C(O)c1cc(=O)c2cc(Cl)ccc2[nH]1
Reply: 1

Query: Output measured normalized growth for this item: Oc1ccc(O)cc1
Reply: 1.02

Query: Give normalized growth for the following compound: Cc1c(O)cc(O)c2c(=O)c(-c3ccc(O)cc3)coc12
Reply: 1

Query: State its normalized growth: CC(=O)O[C@]1(C(C)=O)CCC2C3C[C@H](C)C4=CC(=O)CC[C@]4(C)C3CC[C@@]21C (stereo partly drawn)
Reply: 0.997

Query: # return recorded normalized growth for input C1CCc2nnnn2CC1
Reply: 1.01

Query: Please give measured normalized growth of the following entry: Cc1cc(C(C)(C)CC(C)(C)C)ccc1OCCOCC[N+](C)(C)Cc1ccccc1
Reply: 0.0552

* * *

- Method notes: chemical genetic growth profiling, strain panel (AID 1159580);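 note: tested at 20 µM; growth read once vehicle control cultures reached saturation at 30 °C; 1 = growth at the plate median or of vehicle wells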
- Protocol conditions: S. cerevisiae deletion strains, growth OD, locus YKR026C, strain gcn3, stronger effect = lower value
About 2,000 (36%) of roughly 5,500 compounds were called active. Another 18% or so got no clear call; they are omitted. The list shows a part of the results.
Label Fulfilled when normalized growth is strictly below 1; otherwise label Not fulfilled.

Query: Please check: normalized growth for CCCCCCCCCCCCC[N+](C)(C)Cc1ccccc1 , strictly under 1 or not?
Reply: Fulfilled

Query: Please check: normalized growth for COc1ccc(C2CC(=O)c3ccc(OC)cc3O2)cc1 (stereo not given) , strictly under 1 or not?
Reply: Fulfilled

Query: # TODO verify normalized growth < 1 strictly for this compound: CCCCCC(C)N (stereo not given)
Reply: Not fulfilled

Query: A record lists CC1(C)C2CC[C@]3(C)C(C(=O)C=C4[C@H]5C[C@@](C)(C(=O)O)CC[C@]5(C)CC[C@]43C)[C@@]2(C)CC[C@@H]1O (stereo not given in full) . Is its normalized growth below 1?
Reply: Not fulfilled

Query: Problem: For the compound CCC1(c2ccc(N)cc2)CCC(=O)NC1=O (stereo not given) , is normalized growth under 1?
Reply: Fulfilled

Query: Regarding COc1ccc2cc1Oc1ccc(cc1)C[C@H]1c3c(cc4c(c3Oc3cc5c(cc3OC)CCN(C)[C@@H]5C2)OCO4)CCN1C , kindly confirm whether its normalized growth is beneath 1.
Reply: Fulfilled

Query: Quick check: does Cc1cc(C(C)(C)CC(C)(C)C)ccc1OCCOCC[N+](C)(C)Cc1ccccc1 have normalized growth under 1?
Reply: Fulfilled

Query: Hello, is normalized growth of the following compound strictly smaller than 1? O=C1C[C@@H](c2ccc(O)cc2)Oc2cc(O)cc(O)c21
Reply: Fulfilled

Query: Just wondering, is normalized growth of COc1ccc(-c2coc3c(O)c(OC)ccc3c2=O)cc1 below 1?
Reply: Fulfilled

Query: Confirm or reject: normalized growth of CC(=O)CC(=O)CCC(=O)O lies strictly below 1
Reply: Not fulfilled

Query: Quick check: does C=CCc1ccc2c(c1)OCO2 have normalized growth under 1?
Reply: Not fulfilled

Query: Consider the compound COc1ccc(C(=O)c2ccccc2)c(O)c1 . Is its normalized growth strictly less than 1?
Reply: Fulfilled

Query: Lab log: compare recorded normalized growth with 1; is it strictly lower for CN=C(NC#N)NCCSCc1nc(N=C(N)N)cs1 ?
Reply: Fulfilled
